Values from patent US6344321

- assayTarget: c-met extracellular domain-IgG1-His6 (Homo sapiens, UniProt P08581 P08581:25-932)
- Sequence (P08581 25-932, one chain of several): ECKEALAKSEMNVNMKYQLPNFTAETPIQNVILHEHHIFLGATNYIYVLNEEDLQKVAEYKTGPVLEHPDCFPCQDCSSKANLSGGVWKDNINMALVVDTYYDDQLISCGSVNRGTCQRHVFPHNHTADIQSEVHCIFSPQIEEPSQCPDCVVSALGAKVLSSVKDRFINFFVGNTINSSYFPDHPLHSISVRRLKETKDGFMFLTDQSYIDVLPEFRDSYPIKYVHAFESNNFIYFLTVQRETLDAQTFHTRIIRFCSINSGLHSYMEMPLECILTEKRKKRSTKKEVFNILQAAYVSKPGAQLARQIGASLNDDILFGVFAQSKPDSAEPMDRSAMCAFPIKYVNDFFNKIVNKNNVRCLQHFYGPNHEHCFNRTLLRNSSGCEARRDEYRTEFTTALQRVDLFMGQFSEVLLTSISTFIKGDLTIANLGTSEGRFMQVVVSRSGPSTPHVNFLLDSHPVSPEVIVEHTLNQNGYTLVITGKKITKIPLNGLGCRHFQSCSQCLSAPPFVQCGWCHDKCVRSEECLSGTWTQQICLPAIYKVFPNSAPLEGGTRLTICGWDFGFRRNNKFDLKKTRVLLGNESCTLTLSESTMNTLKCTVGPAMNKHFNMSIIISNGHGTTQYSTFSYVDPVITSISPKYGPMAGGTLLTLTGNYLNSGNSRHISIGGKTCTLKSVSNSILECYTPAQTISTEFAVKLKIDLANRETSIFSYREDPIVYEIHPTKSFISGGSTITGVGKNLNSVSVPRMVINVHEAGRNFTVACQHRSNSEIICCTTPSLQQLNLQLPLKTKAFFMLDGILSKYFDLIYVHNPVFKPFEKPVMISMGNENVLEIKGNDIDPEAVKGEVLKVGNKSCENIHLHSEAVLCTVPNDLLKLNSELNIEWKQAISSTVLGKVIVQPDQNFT
- assayComment: filter; biphasic; lower affinity Kd ~5 nM
- recordedConditions: chain copies: 2
pKd: −log10 of the molar value.
reportedMetric: pKd

So, 7c-1 (ssRNA, 2'-F pyrimidines) RNA: GGGAGGACGAUGCGGUUUGACUAUGUCUGACGGGUCUGUGGUCAAUUCCGCCCCCAGACGACUCGCCCGA ? Its pKd was ~10.30
